Subject Of Test: IL-17A(FLAG-Tagged): IL-17RA(His-Tagged) (Homo sapiens, UniProt Q16552, K93Q)
Sequence (Q16552 with tags, fused parts or gaps K93Q): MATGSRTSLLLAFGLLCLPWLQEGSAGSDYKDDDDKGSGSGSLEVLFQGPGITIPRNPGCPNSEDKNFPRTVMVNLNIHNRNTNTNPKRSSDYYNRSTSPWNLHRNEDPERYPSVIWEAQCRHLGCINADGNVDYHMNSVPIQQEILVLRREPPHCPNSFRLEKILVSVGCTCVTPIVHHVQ
Assay Details: IL-17A(FLAG-Tagged): IL-17RA(His-Tagged) Binding Disruption Eu-HTRF Assay
Test Parameters: IL-17A/IL-17RA binding disruption, simple average if tested more than once
// returns False unless IC50 is strictly below 1000 nM, in which case True

INSERT INTO assay_data (molecule, assigned_label) VALUES
  ('CC(C)c1ocnc1C(=O)N[C@H](c1cn2ncc([C@H](NC(=O)CCC(F)(F)F)C3CC3)cc2n1)C1CCC(F)(F)CC1 [Example 86]', 'True'),
  ('CC(C)n1nccc1C(=O)N[C@H](c1cn2ncc([C@H](NC(=O)COC(F)(F)F)C3CC3)cc2n1)C1CCC(F)(F)CC1 [Example 276]', 'True'),
  ('CC(C)n1nccc1C(=O)N[C@H](c1cn2ncc(C(NC(=O)CC(C)(C)O)C3CC3)cc2n1)C1CCC(F)(F)CC1 (single isomer, unassigned) [Example 137]', 'False'),
  ('Nc1nonc1C(=O)N[C@H](c1cn2ncc([C@H](NC(=O)CCC(F)(F)F)C3CC3)cc2n1)C1CCC(F)(F)CC1 [Example 370]', 'True'),
  ('O=C(CCC(F)(F)F)N[C@@H](c1cnn2cc([C@@H](NC(=O)c3cccnn3)C3CCC(F)(F)CC3)nc2c1)C1CC1 [Example 458]', 'False');

Now let's try a different one.
Please indicate whether the reported IC50 of O=C(CC1CC(F)(F)C1)N[C@@H](c1cnn2cc([C@@H](NC(=O)[C@@H]3C[C@H]3C(F)(F)F)C3CCC(F)(F)CC3)nc2c1)C1CC1 (relative stereo) [Example 144] is strictly below 1000 nM.
False

Source: patent US11702422B2
